test system: Chaetomium globosum; assay: 6-well plate assay, minimal inhibitory concentration; type: cell-based; conditions: Chaetomium globosum, 168 h; 6-well agar plate; lowest concentration with no growth after seven days; read-out: Effectiveness at Inhibiting Wood-Rotting Fungi, SR1 (minimal inhibitory concentration)
# MIC per entry

>>> result_value("O=[N+]([O-])c1cc(C(F)(F)F)c(Cl)c([N+](=O)[O-])c1Nc1ncc(C(F)(F)F)cc1Cl")
"< 1 µg/mL"
>>> result_value("CCCC1COC(Cn2cncn2)(c2ccc(Cl)cc2Cl)O1 (stereo not shown)")
"< 1 µg/mL"
>>> result_value("Nc1nc(=O)[nH]cc1F")
"> 100 µg/mL"
>>> result_value("C[Si](Cn1cncn1)(c1ccc(F)cc1)c1ccc(F)cc1")
"< 1 µg/mL"
>>> result_value("COC(=O)Nc1nc2ccccc2[nH]1")
"< 1 µg/mL"
>>> result_value("CC(Cc1ccc(C(C)(C)C)cc1)CN1C[C@@H](C)O[C@@H](C)C1 (stereo partly shown)")
"> 100 µg/mL"

## Task Suppose we examine the compound CC(C)(C)C(O)(CCc1ccc(Cl)cc1)Cn1cncn1 (stereo not shown) ; what MIC value has been reported?
## Result 1 to 100 µg/mL

## Task Can you look up the measured MIC of CCCCNC(=O)n1c(NC(=O)OC)nc2ccccc21 for me?
## Result < 1 µg/mL

## Task Please give the measured MIC for this compound: c1ccc2[nH]c(-c3cscn3)nc2c1
## Result < 1 µg/mL

## Task Returns the measured MIC for the input compound. Input: CON=C(C(=O)OC)c1ccccc1CON=C(C)c1cccc(C(F)(F)F)c1
## Result > 100 µg/mL

----------
system: Postia placenta; assay: 6-well plate assay, minimal inhibitory concentration; format: cell-based; settings: Rhodonia placenta, 168 h; 6-well agar plate; lowest concentration with no growth after seven days; read-out: Effectiveness at Inhibiting Wood-Rotting Fungi, BR1 (minimal inhibitory concentration)
# Lookup of reported MIC keyed by entry

## Task Lab request: please report MIC under test system Postia placenta for CC(Cc1ccc(C(C)(C)C)cc1)CN1C[C@@H](C)O[C@@H](C)C1 (stereo partly shown) [Fenpropimorph]
## Result < 1 µg/mL

## Task Please tell me: MIC of O=[N+]([O-])c1cc(C(F)(F)F)c(Cl)c([N+](=O)[O-])c1Nc1ncc(C(F)(F)F)cc1Cl [Fluazinam] , system Postia placenta?
## Result < 1 µg/mL

## Task Lab note: need MIC with Postia placenta for entry Nc1nc(=O)[nH]cc1F [5-Fluorocytosine] , please look it up.
## Result < 1 µg/mL

## Task Recall the recorded MIC for CCCC1COC(Cn2cncn2)(c2ccc(Cl)cc2Cl)O1 (stereo not shown) [Propiconazole] with Postia placenta and state it.
## Result < 1 µg/mL

## Task What measured MIC is associated with c1ccc2[nH]c(-c3cscn3)nc2c1 [Thiabendazole] on Postia placenta?
## Result > 100 µg/mL

## Task What is its MIC for Postia placenta? Entry: CC(C)(C)C(O)(CCc1ccc(Cl)cc1)Cn1cncn1 (stereo not shown) [Tebuconazole]
## Result < 1 µg/mL

## Task Hello, I am looking for reported MIC with Postia placenta for COC(=O)Nc1nc2ccccc2[nH]1 [Carbendazim] . Could you help?
## Result 1 to 100 µg/mL

## Task Form field - read-out: MIC; system: Postia placenta; submitted item: CON=C(C(=O)OC)c1ccccc1CON=C(C)c1cccc(C(F)(F)F)c1 [Trifloxystrobin]
## Result 1 to 100 µg/mL

## Task GET /values?readout=MIC&system=Postia placenta&item= C[Si](Cn1cncn1)(c1ccc(F)cc1)c1ccc(F)cc1 [Flusilazole]
## Result < 1 µg/mL

## Task Find MIC (Postia placenta) for the entry CCCCNC(=O)n1c(NC(=O)OC)nc2ccccc21 [Benomyl]
## Result 1 to 100 µg/mL
